Provenance of the data: patent US4239767A

These records show MIC for Cand. alb..
Numbers only; they are read as µg/mL.

Which MIC value is on record for CC(C)(C)C(=O)C(Oc1c(Cl)cc(-c2ccc(Br)cc2)cc1Cl)n1ccnc1 (stereo not shown) [drawing 11] ?
8

One more compound: CC(C)(C)C(O)C(Oc1ccc(Cc2ccccc2)cc1)n1ccnc1 (stereo not shown) [drawing 9]
4

What do you get for CC(C)(C)C(=O)C(Oc1ccc(S(=O)(=O)c2ccccc2)cc1)n1ccnc1 (stereo not shown) [drawing 13] ?
4

For CC(C)(C)C(=O)C(Oc1ccc(Cc2ccccc2)cc1)n1ccnc1 (stereo not shown) [drawing 12] then?
16

Please answer likewise for CC(C)(C)C(O)C(Oc1ccc(-c2ccc(Cl)cc2)cc1)n1ccnc1 (stereo not shown) [drawing 8]
4

What do you get for CC(C)(C)C(=O)C(Oc1c(Cl)cc(-c2ccc(Br)cc2)cc1Br)n1ccnc1 (stereo not shown) [drawing 14] ?
8
